biological target: T1, huNav1.7α+β1 (human, UniProt Q15858 1-1988; Q07699 19-218); assay: binding FACS, HEKa/β1 cells
T1 construct: also called huNav1.7-beta1; HEKa/β1
Record form. Attribute: EC50. Fill in for each entry.
Give bare numbers, in nM.

Answered cases to consult:
* F010300796 (VHH, vs F0103275B05: S27P, I28V, S33R, S50Y, N53P, S56D) VHH: EVQLVESGGGLVQPGGSLRLSCAASGPVFNINRMAWYRRAPGKQRELVAYSTPGGDTNYADSVKGRFTISRDNAKRVYLQMNSLTPEDTAVYYCNALLQPSIYDISRTYWGQGTLVTVSS | 38
* F0103275B05 (parental)-FLAG-HIS6 (VHH, also called F01033275B05) VHH: EVQLVESGGGLVQPGGSLRLSCAASGSIFNINSMAWYRRAPGKQRELVASSTNGGSTNYADSVKGRFTISRDNAKRVYLQMNSLTPEDTAVYYCNALLQPSIYDISRTYWGQGTLVTVSS | 48
* F010301462 (VHH, vs F0103275B05: S27P, I28V, S33R, S50Y, N53P, S56D, N93R) VHH: EVQLVESGGGLVQPGGSLRLSCAASGPVFNINRMAWYRRAPGKQRELVAYSTPGGDTNYADSVKGRFTISRDNAKRVYLQMNSLTPEDTAVYYCRALLQPSIYDISRTYWGQGTLVTVSS | 22

# evaluate next
Could you share which EC50 value was measured for F010300990 (VHH, vs F0103275B05: S27P, I28V, S33R, S50Y, N53P, T101I) VHH: EVQLVESGGGLVQPGGSLRLSCAASGPVFNINRMAWYRRAPGKQRELVAYSTPGGSTNYADSVKGRFTISRDNAKRVYLQMNSLTPEDTAVYYCNALLQPSIYDISRIYWGQGTLVTVSS ? 65

Data provenance: patent US20240002497A1
